Below: a set of entries, each annotated with reported protein stability index.
B1: FADS1 (parent)
chain: LNFQIEHHLFPTMPRHNYHKVAPL

Variants of: B1
Experiment: protein stability index of a GFP-peptide fusion (GPS, HEK-293T) (PSI 1-6); higher = more stable;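 also: lentivirally expressed fusions sorted by FACS into six bins by GFP to DsRed ratio, PSI derived from sequencing read proportions per bin multiplied by bin number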
Conditions: c terminus: a fixed tail appended
Just the number, please, no unit attached.

Example cases with answers are listed next.
sequence_content=LNFQIEMHLFPTMPRHNYHKVAPL experimental_result=2.96
sequence_content=LNFQIEHHTFPTMPRHNYHKVAPL experimental_result=1.42
sequence_content=LNFQIECHLFPTMPRHNYHKVAPL experimental_result=3.38
sequence_content=LNFQIEHHLFPTMPHHNYHKVAPL experimental_result=1.84
sequence_content=LNFQWEHHLFPTMPRHNYHKVAPL experimental_result=1.43

Exercise: Which value of protein stability index has been reported for "LNNQIEHHLFPTMPRHNYHKVAPL" in the records?
Solution: 2.52

Exercise: Param item: "LNFQIEHHLFPTMPRHNYHLVAPL"
Solution: 3.03

Exercise: Input "LNFQIEHHLFPTMPRPNYHKVAPL"
Solution: 2.19

Exercise: Continue with "ENFQIEHHLFPTMPRHNYHKVAPL"
Solution: 2.29

Exercise: Next up: "LNFQIEHHLFPTMPRHNYHKFAPL"
Solution: 2.85

Exercise: Entry to check: "LNFQIEHHLFPTMPRHNHHKVAPL"
Solution: 1.6

Exercise: Also "LNMQIEHHLFPTMPRHNYHKVAPL" , if possible.
Solution: 2.31

Exercise: Consider next the variant "LNFQIEHHLWPTMPRHNYHKVAPL" in the same way.
Solution: 2

Exercise: Another variant to look at: "LQFQIEHHLFPTMPRHNYHKVAPL"
Solution: 1.91

Exercise: Follow-up item: "LNFQIEHHNFPTMPRHNYHKVAPL"
Solution: 1.57

Exercise: Now try "LNFQFEHHLFPTMPRHNYHKVAPL" .
Solution: 2.87

Exercise: Moving on to "LNFQIEHHLFPTMPRHNYHKVAPF"
Solution: 2.15

Exercise: Also check "LNFQIEHHLFPTMPRHNYHKEAPL"
Solution: 2.32

Exercise: Field entry: "LNFQIEHHLFPTMPRGNYHKVAPL"
Solution: 1.24

Exercise: Same question for "LNTQIEHHLFPTMPRHNYHKVAPL" please.
Solution: 2.4

Exercise: // same read-out, input: "LNFQIEHHLFTTMPRHNYHKVAPL"
Solution: 2.24

Exercise: Again, but for "NNFQIEHHLFPTMPRHNYHKVAPL"
Solution: 1.95
